test system: UACC-257; test: NCI tumour cell line growth inhibition, 48 h
Active and inactive are the calls of the source. No stated cut-off is given here; in the data, active = GI50 up to about 1.1 µM and inactive = higher. Peptide text beside a SMILES is read from it. * marks the point of attachment. OSu = O=C1CCC(=O)N1O*
quantityName: GI50

Give UACC-257 GI50 for c1ccc([B-]23Oc4ccccc4[NH+]2c2ccccc2O3)cc1 (stereo not given)
> 100 µM (inactive)

Give UACC-257 GI50 for "CC(C)(C)c1cc(/C=C(\C#N)C2=NCCO2)cc(C(C)(C)C)c1O"
2.64 µM (inactive)

Give UACC-257 GI50 for "CC(C)CC(=O)N1CCN(C(=O)CC(C)C)c2ccccc21"
> 100 µM (inactive)

Give UACC-257 GI50 for "CCOC(=O)/C(C(=O)Nc1cccc(Cl)c1)=C(/N)N1CCOCC1"
> 100 µM (inactive)

Give UACC-257 GI50 for CCC1(c2ccncc2)CCC(=O)NC1=O (stereo not given) [ROGLETIMIDE]
> 100 µM (inactive)

Give UACC-257 GI50 for CC(=O)OCC1OC(OCc2ccccc2)C(Br)C(OC(C)=O)C1OC(C)=O (stereo not given)
> 100 µM (inactive)

Give UACC-257 GI50 for COc1ccc2c3c1O[C@H]1C(OC)C=CC4C(C2)N(Cc2cccs2)CCC341 (stereo not given in full)
44.4 µM (inactive)

Give UACC-257 GI50 for COc1cc2cc(C(=O)N3CC(COS(C)(=O)=O)c4c3cc([N+](=O)[O-])c3ccccc43)[nH]c2c(OC)c1OC (stereo not given)
> 31.6 µM (inactive)

Give UACC-257 GI50 for CCOC(=O)N1N=C(/C(C)=N/OC)C(C)[S+]1[O-] (stereo not given)
> 100 µM (inactive)

Give UACC-257 GI50 for "COc1cc(C=O)cc(/C=N/n2c3ccccc3c3ccccc32)c1O"
26.8 µM (inactive)

Give UACC-257 GI50 for "CCc1cccc(C)c1NC(=O)NS(=O)(=O)c1ccc(C)cc1"
> 100 µM (inactive)

Give UACC-257 GI50 for Cn1cc(NC(=O)c2cc(NC(=O)CNC(=N)N)cn2C)cc1C(=O)NCCC(=N)N [NETROPSIN CHLORIDE]
> 100 µM (inactive)

Give UACC-257 GI50 for ON=C1CCC(c2ccccc2)CC1 (stereo not given)
> 100 µM (inactive)

Give UACC-257 GI50 for "COc1cccc(CN(C(=O)/C=C\Sc2ccccc2)C(C)(C)C)c1"
41 µM (inactive)

Give UACC-257 GI50 for "CC(=O)Nc1ccc2c(c1)C(=O)c1ccccc1-2"
> 100 µM (inactive)

Give UACC-257 GI50 for COc1cccc(/C=C2\CCC(CN(C)C)C2=O)c1 (stereo not given)
3.85 µM (inactive)

Give UACC-257 GI50 for C=C1CC23CCC4C(C)(C(=O)O)CCCC4(C)C2CCC1C3 (stereo not given)
36.8 µM (inactive)

Give UACC-257 GI50 for "C=C(C)CNC(=S)N(N)c1ccc2ccccc2c1"
> 100 µM (inactive)

Give UACC-257 GI50 for C/C=C(\C)C(=O)OC1CC(OC(C)=O)C2(C(=O)OC)COC3C2C1(C)C1C2(C(=O)OC)OCC1(C3O)C1(O)C3CC(C4(O)C=COC4O3)C1(C)O2 (stereo not given)
> 100 µM (inactive)

Give UACC-257 GI50 for NCCCCC(NC(=O)C(N)Cc1ccc(O)cc1)C(=O)NC(Cc1ccc(O)cc1)C(=O)NC(CCCCN)C(=O)ON1C(=O)CCC1=O (stereo not given) (H-YKYK-OSu; configuration not given here)
> 100 µM (inactive)
